experimental_system: LMP2 (Homo sapiens, UniProt P28065+P40306)
Construct: endogenous in cells; host or cells: MOLT-4
assay_notes: ProCISE proteasome subunit assay, LMP2
Type: biochemical
test_context: MOLT4 lysate Hu 1 h
value_kind: pIC50
Just so you know, pIC50 here is -log10 of the concentration in molar units; reply with that number alone.

The following compounds have reported results that may help.
C[C@H](NC(=O)c1cccc(=O)[nH]1)C(=O)N[C@@H](CC1CCCC1)C(=O)[C@@]1(C)CO1 ... 7.60
C[C@H](NC(=O)c1cccc(=O)[nH]1)C(=O)N[C@@H](Cc1ccccc1)C(=O)[C@@]1(C)CO1 ... 7.26
COc1ccc(C[C@H](NC(=O)c2cccc(=O)[nH]2)C(=O)N[C@@H](CC2CCCC2)C(=O)[C@@]2(C)CO2)cc1 ... 7.46
COc1ccc(C[C@H](NC(=O)c2cccc(=O)[nH]2)C(=O)N[C@@H](CC2=CCCC2)C(=O)[C@@]2(C)CO2)cc1 ... 7.42
COc1ccc(C[C@H](NC(=O)[C@@H](C)NC(=O)c2ncc[nH]2)C(=O)N[C@@H](CC2CCCC2)C(=O)[C@@]2(C)CO2)cc1 ... 6.33
COc1ccc(C[C@H](NC(=O)c2ccnc(N3CCOCC3)n2)C(=O)N[C@@H](Cc2ccccc2)C(=O)[C@@]2(C)CO2)cc1 ... 6.28

In: Using LMP2 (Homo sapiens, UniProt P28065+P40306) as the test system, report measured pIC50 of COc1ccc(C[C@H](NC(=O)[C@H]2CCCC(=O)N2)C(=O)N[C@@H](Cc2ccccc2)C(=O)[C@@]2(C)CO2)cc1 .
Out: 6.29

In: # return pIC50 for COc1ccc(C[C@H](NC(=O)[C@@](C)(O)C(F)(F)F)C(=O)N[C@@H](Cc2ccccc2)C(=O)[C@@]2(C)CO2)cc1 , test system: LMP2 (Homo sapiens, UniProt P28065+P40306)
Out: 6.56

In: Recall the reported pIC50 of C[C@]1(C(=O)[C@H](CC2CCCC2)NC(=O)[C@H](CO)NC(=O)c2cccc(=O)[nH]2)CO1 on LMP2 (Homo sapiens, UniProt P28065+P40306) and write it down.
Out: 7.77

###

Known IC50 of a selection of compounds
experimental_system: c20S (constitutive 20S proteasome) (Homo sapiens, UniProt P20618+P28074)
assay_notes: 20S proteasome assay, chymotrypsin-like activity (LLVY), c20S
Type: biochemical
test_context: LLVY c20S Hu 1 h CONT: IC50 (nM), succinyl-Leu-Leu-Val-Tyr-AMC
Excerpt: Assay buffer consisted of TE buffer [20 mmol/L Tris (pH 8.0), 0.5 mmol/L EDTA] with (20S) or without (cell lysate) 0.03% SDS. Reactions were initiated by enzyme or lysate addition and monitored for AMC product formation at 27jC with a plate-based spectofluorometer (Tecan).
Answer in nM, number only, no unit symbol.

Examples from the recorded data:
COc1ccc(C[C@H](NC(=O)[C@@H](C)NC(=O)C2=CCCC2)C(=O)N[C@@H](CC2CCCC2)C(=O)[C@@]2(C)CO2)cc1 ... 6080
COCCC(=O)N[C@@H](C)C(=O)N[C@@H](Cc1ccc(OC)cc1)C(=O)N[C@@H](CC1CCCC1)C(=O)[C@@]1(C)CO1 ... 579
COc1ccc(C[C@H](NC(=O)[C@@H](C)NC(=O)Cc2cc(C)no2)C(=O)N[C@@H](CC2CCCC2)C(=O)[C@@]2(C)CO2)cc1 ... 18600
COc1ccc(C[C@H](NC(=O)[C@H](C)NC(=O)Cc2cc(C)no2)C(=O)N[C@@H](CC2CCCC2)C(=O)[C@@]2(C)CO2)cc1 ... 45.7
COc1ccc(C[C@H](NC(=O)[C@@H](C)NC(=O)CC(C)(O)C(F)(F)F)C(=O)N[C@@H](CC2CCCC2)C(=O)[C@@]2(C)CO2)cc1 (stereo partly drawn) ... 723

Now turn to the next compound.
In: # return recorded IC50 for input COc1ccc(C[C@H](NC(=O)[C@]2(C)CCC(=O)N2)C(=O)N[C@@H](Cc2ccccc2)C(=O)[C@@]2(C)CO2)cc1
Out: 3320

###

experimental_system: c20S (constitutive 20S proteasome) (Homo sapiens, UniProt P20618+P28074)
assay_notes: 20S proteasome assay, chymotrypsin-like activity (LLVY), c20S
Assay type: biochemical
test_context: LLVY c20S Hu 1 h CONT: IC50 (nM), succinyl-Leu-Leu-Val-Tyr-AMC
value_kind: IC50

CC[C@@](C)(O)CC(=O)N[C@H](C)C(=O)N[C@@H](Cc1ccc(OC)cc1)C(=O)N[C@@H](CC1CCCC1)C(=O)[C@@]1(C)CO1 [Compound C-2052] ... 316 nM

In: Please supply the value of reported IC50 for the item COc1ccc(C[C@H](NC(=O)[C@@H]2CCC(=O)N2)C(=O)N[C@@H](Cc2ccccc2)C(=O)[C@@]2(C)CO2)cc1 [Compound C-3013]
Out: 15900 nM

In: Give the reported IC50 for this compound. COc1ccc(C[C@H](NC(=O)[C@@H](C)NC(=O)CC(C)(C)O)C(=O)N[C@@H](CC2CCCC2)C(=O)[C@@]2(C)CO2)cc1O [Compound C-2059]
Out: 246 nM

In: Tell me measured IC50 for COc1ccc(C[C@H](NC(=O)[C@@H](C)NC(=O)c2cccnc2)C(=O)N[C@@H](CC2CCCC2)C(=O)[C@@]2(C)CO2)cc1 [Compound C-2032] please.
Out: 1890 nM

In: Quote IC50 reported for COC(=O)N[C@H](C)C(=O)N[C@@H](Cc1ccc(OC)cc1)C(=O)N[C@@H](Cc1ccccc1)C(=O)[C@@]1(C)CO1 [Compound C-2010] please.
Out: 1050 nM

In: Using the record for COc1ccc(C[C@H](NC(=O)[C@H](CO)NC(C)=O)C(=O)N[C@@H](Cc2ccccc2)C(=O)[C@@]2(C)CO2)cc1 [Compound C-2007] , state its measured IC50.
Out: 432 nM

###

experimental_system: β5 (Homo sapiens, UniProt P20618+P28074)
Construct: endogenous in cells; host or cells: MOLT-4
assay_notes: ProCISE proteasome subunit assay, β5
Type: biochemical
test_context: MOLT4 lysate Hu 1 h
value_kind: pIC50
API: returns pIC50 as number; meaning -log10 of concentration in mol/L.

COCOCCC(=O)N[C@@H](C)C(=O)N[C@@H](Cc1ccc(OC)cc1)C(=O)N[C@@H](Cc1ccccc1)C(=O)[C@@]1(C)CO1 ... 6.45
COc1ccc(C[C@H](NC(=O)[C@H]2CCC(=O)N2)C(=O)N[C@@H](Cc2ccccc2)C(=O)[C@@]2(C)CO2)cc1 ... 5.22

Attention now turns to another entry.
In: Report measured pIC50 on β5 (Homo sapiens, UniProt P20618+P28074); entry: COc1ccc(C[C@H](NC(=O)[C@@H](CO)NC(=O)c2cc(C)no2)C(=O)N[C@@H](CC2CCCC2)C(=O)[C@@]2(C)CO2)cc1
Out: 5.67

###

Known log10 IC50 of a selection of compounds
experimental_system: i20S (20S immunoproteasome) (Homo sapiens, UniProt P20618+P28062)
assay_notes: 20S proteasome assay, chymotrypsin-like activity (LLVY), i20S
Assay type: biochemical
test_context: LLVY i20S Hu 1 h CONT: IC50 (nM), succinyl-Leu-Leu-Val-Tyr-AMC
Remember, log10 of IC50, in nM.

COc1ccc(C[C@H](NC(=O)[C@@H](C)NC(=O)C[C@@H](C)O)C(=O)N[C@@H](CC2CCCC2)C(=O)[C@@]2(C)CO2)cc1 [Compound C-2042] ... 2.53

In: Complete the entry with log10 IC50 for COc1ccc(C[C@H](NC(=O)[C@H](C)NC(=O)CCO)C(=O)N[C@@H](Cc2ccccc2)C(=O)[C@@]2(C)CO2)cc1 [Compound C-2012]
Out: 1.94

In: In one line, give reported log10 IC50 of the entry C[C@@H](NC(=O)CC(C)(C)O)C(=O)N[C@@H](Cc1ccc(S(C)(=O)=O)cc1)C(=O)N[C@@H](CC1CCCC1)C(=O)[C@@]1(C)CO1 [Compound C-2050] .
Out: 1.69

In: Answer with the recorded log10 IC50 of CC[C@](C)(O)CC(=O)N[C@H](C)C(=O)N[C@@H](Cc1ccc(OC)cc1)C(=O)N[C@@H](CC1CCCC1)C(=O)[C@@]1(C)CO1 [Compound C-2051] only.
Out: 1.53

In: Item COc1ccc(C[C@H](NC(=O)[C@H](C)NC(=O)c2cnc(C)s2)C(=O)N[C@@H](CC2CCCC2)C(=O)[C@@]2(C)CO2)cc1 [Compound C-2025] : provide log10 IC50
Out: 2.76

In: Note log10 IC50 for the compound shown: COc1ccc(C[C@H](NC(=O)[C@@H](C)NC(=O)c2ccccn2)C(=O)N[C@@H](CC2CCCC2)C(=O)[C@@]2(C)CO2)cc1 [Compound C-2031]
Out: 2.88

In: Tell me its log10 IC50 given COc1ccc(C[C@H](NC(=O)[C@H](C)NC(=O)C(F)(F)F)C(=O)N[C@@H](Cc2ccccc2)C(=O)[C@@]2(C)CO2)cc1 [Compound C-2011] as the entry.
Out: 1.13

In: Give recorded log10 IC50. COc1ccc(C[C@H](NC(=O)[C@H]2CCC(=O)N2)C(=O)N[C@@H](Cc2ccccc2)C(=O)[C@@]2(C)CO2)cc1 [Compound C-3012]
Out: 3.68

In: Give the measured log10 IC50 for COc1ccc(C[C@H](NC(=O)[C@]2(C)CCC(=O)N2)C(=O)N[C@@H](Cc2ccccc2)C(=O)[C@@]2(C)CO2)cc1 [Compound C-3011]
Out: 3.66

In: Name the recorded log10 IC50 of the item COc1ccc(C[C@H](NC(=O)[C@@H](C)NC(=O)CC(C)(C)O)C(=O)N[C@@H](CC2CCCC2)C(=O)[C@@]2(C)CO2)cc1 [Compound C-2028] in your answer.
Out: 1.08

In: Annotate the compound COc1ccc(C[C@H](NC(=O)[C@@H](C)NC(=O)C[C@H](C)O)C(=O)N[C@@H](CC2CCCC2)C(=O)[C@@]2(C)CO2)cc1 [Compound C-2043] with its measured log10 IC50.
Out: 2.43

In: Name the recorded log10 IC50 of the compound listed here: COc1ccc(C[C@H](NC(=O)[C@H]2CCCC(=O)N2)C(=O)N[C@@H](Cc2ccccc2)C(=O)[C@@]2(C)CO2)cc1 [Compound C-3009]
Out: 4.00
